- Tested on: P. aeruginosa
- measurement notes: MIC-based assay for potentiation of antibiotics that are known efflux pump substrates (Test A), P. aeruginosa
- Assay type: cell-based
- conditions used: fold lowering of MIC of antibiotic (e.g., clarithromycin and levofloxacin) with EPI compound at 1.6 to 12.5 μg/mL; Pseudomonas aeruginosa ATCC 27853
Structures can show the parent of a compound that is named as a salt.
The following compounds are shown together with reported Active in P. aeruginosa values.

{"compound": "NCCC[C@H](N)CNC(CCc1ccccc1)CCc1ccccc1 [Example 1, TFA]", "Active in P. aeruginosa": "<2x"}
{"compound": "CC(C)C(N)CC[C@H](N)CNC(CCc1ccccc1)CCc1ccccc1.Cl.Cl.Cl (some centres unmarked) [Example 10]", "Active in P. aeruginosa": "<2x"}
{"compound": "NCC(N)COCC(CCc1ccccc1)CCc1ccccc1 (centres unmarked) [Example 12]", "Active in P. aeruginosa": "<2x"}
{"compound": "CC(C)C(N)CC[C@H](N)CNCC(CCc1ccccc1)CCc1ccccc1 (some centres unmarked) [Example 9]", "Active in P. aeruginosa": "<2x"}
{"compound": "NCC[C@H](N)CNC(CCc1ccccc1)CCc1ccccc1 [Example 3]", "Active in P. aeruginosa": "≥2x"}
{"compound": "NCC(N)COC(CCc1ccccc1)CCc1ccccc1 (centres unmarked) [Example 11]", "Active in P. aeruginosa": "<2x"}
{"compound": "NCCC[C@H](N)CNCC(CCc1ccccc1)CCc1ccccc1 [Example 7]", "Active in P. aeruginosa": "≥32x"}
{"compound": "NC[C@@H](N)CCCNCC(CCc1ccccc1)CCc1ccccc1 [Example 8, 2,2,2-trifluoroacetate]", "Active in P. aeruginosa": "≥32x"}
{"compound": "NCC[C@H](N)CCNC(CCc1ccccc1)CCc1ccccc1 [Example 5, TFA]", "Active in P. aeruginosa": "≥16x"}
{"compound": "NC[C@@H](N)CCNC(CCc1ccccc1)CCc1ccccc1 [Example 4, TFA]", "Active in P. aeruginosa": "≥2x"}
{"compound": "NC[C@@H](N)CCCNC(CCc1ccccc1)CCc1ccccc1 [Example 2, TFA]", "Active in P. aeruginosa": "≥4x"}
